Kindly state hERG current change (%, negative = inhibition) at 10uM for each of the entries shown.
Biological target: human ether-à-go-go-related gene (hERG) potassium channel (human);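 further: peak tail current of the secondary pulse compared with the same well before compound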
Assay: primary screen, population patch clamp on CHO cells stably expressing hERG; higher = less effect of the substance
Screen size: about 310,000 compounds; about 14,000 (4.5%) showed an effect of 50% or more. The effect is printed as a negative number. Many of the other results were omitted from the sample, so strong results are more common in it than they were.
One number for each entry, in %.

Reference set, count: 3
Compound	Experimental system	Measurement
CCOc1ccc(NC(=O)NCc2ccc3c(c2)OCO3)cc1	human ether-à-go-go-related gene (hERG) potassium channel (human)	9.08
CCOc1ccccc1CNC(=O)c1ccc2nc(N3CCOCC3)sc2c1	human ether-à-go-go-related gene (hERG) potassium channel (human)	-47.5
COc1ccc(-c2nnn(Cc3nn[nH]n3)n2)cc1OC	human ether-à-go-go-related gene (hERG) potassium channel (human)	3.25

// for each compound below, give its hERG current change (%, negative = inhibition) at 10uM
1. Cc1nc2cc(CO)ccc2s1
2. CC1(C)CC(=O)C2=C(C1)Oc1ncn(CCO)c(=N)c1C2c1ccccc1 (stereo not drawn)
3. COc1ccc(OC)c(NC(=O)C2CC(=O)N(c3ccccc3)C2)c1 (stereo not drawn)
4. CC(C)c1cc(C(=O)NCCc2ccccc2)no1
5. COC(=O)Cn1c(=NC(=O)c2ccc(Cl)s2)sc2cc(F)ccc21
6. CC1(C)CC(=O)C2=C(C1)Oc1ncn(CCCO)c(=N)c1C2c1ccccc1 (stereo not drawn)

[out]
1. 9.23
2. -35.3
3. 5.86
4. -40.1
5. 20
6. -29

====

Target: human ether-à-go-go-related gene (hERG) potassium channel (human, UniProt Q12809);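 further: peak tail current of the secondary pulse compared with the same well before compound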
Sequence (Q12809 whole entry, looked up): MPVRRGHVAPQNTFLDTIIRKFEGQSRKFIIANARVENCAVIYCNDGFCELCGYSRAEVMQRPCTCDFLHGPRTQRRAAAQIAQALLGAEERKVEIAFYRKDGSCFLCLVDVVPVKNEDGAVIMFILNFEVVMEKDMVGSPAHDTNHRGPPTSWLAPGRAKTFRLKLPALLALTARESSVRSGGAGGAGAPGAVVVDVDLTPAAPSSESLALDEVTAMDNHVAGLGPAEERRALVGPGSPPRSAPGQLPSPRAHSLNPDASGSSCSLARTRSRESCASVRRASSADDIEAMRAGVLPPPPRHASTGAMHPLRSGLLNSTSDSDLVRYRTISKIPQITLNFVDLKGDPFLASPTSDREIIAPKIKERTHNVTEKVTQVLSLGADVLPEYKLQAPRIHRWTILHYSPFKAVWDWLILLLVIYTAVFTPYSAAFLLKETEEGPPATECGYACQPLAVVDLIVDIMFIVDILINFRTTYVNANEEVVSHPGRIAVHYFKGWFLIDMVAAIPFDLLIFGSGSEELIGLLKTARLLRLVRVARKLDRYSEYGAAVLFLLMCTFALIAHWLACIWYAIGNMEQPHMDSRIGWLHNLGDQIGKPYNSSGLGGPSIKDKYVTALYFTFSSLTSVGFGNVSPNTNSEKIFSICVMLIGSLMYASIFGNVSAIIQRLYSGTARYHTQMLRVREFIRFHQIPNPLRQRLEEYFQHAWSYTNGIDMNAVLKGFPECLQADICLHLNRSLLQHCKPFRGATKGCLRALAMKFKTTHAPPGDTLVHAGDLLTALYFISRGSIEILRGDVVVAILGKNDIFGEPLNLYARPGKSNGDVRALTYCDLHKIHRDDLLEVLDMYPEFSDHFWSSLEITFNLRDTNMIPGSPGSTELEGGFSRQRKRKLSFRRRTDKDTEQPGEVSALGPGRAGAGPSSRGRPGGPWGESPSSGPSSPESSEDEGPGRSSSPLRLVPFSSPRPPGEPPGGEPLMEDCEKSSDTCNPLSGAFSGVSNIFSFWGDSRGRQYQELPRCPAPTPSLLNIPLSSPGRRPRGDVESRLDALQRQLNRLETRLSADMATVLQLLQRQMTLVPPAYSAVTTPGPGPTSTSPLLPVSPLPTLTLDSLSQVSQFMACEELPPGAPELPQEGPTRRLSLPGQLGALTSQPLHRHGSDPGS
Assay: primary screen, population patch clamp on CHO cells stably expressing hERG; higher = less effect of the substance
About 14,000 (4.5%) of roughly 310,000 compounds showed an effect of 50% or more. Effects have a minus sign here. Shown is part of a subset that was picked to be rich in strong results.
Measured quantity: hERG current change (%, negative = inhibition) at 10uM (%)
Numbers only, in %.

Give hERG current change (%, negative = inhibition) at 10uM for each listed item.
1. Cc1ccc(N2CC(NC(=O)N3CCN(C(=O)c4ccco4)CC3)CC2=O)cc1 (stereo not drawn)
2. O=C(NC1CC(=O)N(c2ccccc2)C1)N1CCN(C(=O)c2ccco2)CC1 (stereo not drawn)
3. Cc1nc(Nc2ccc3c(c2)OCCO3)c2c(C)c(C)sc2n1
4. Cn1c(=O)c(C(=O)COC(=O)c2cc(C3CC3)nc3ccccc23)c(N)n(Cc2ccccc2)c1=O
5. Cc1sc2nc(CN3CCCC3)nc(Cl)c2c1C
6. Cc1ccc(N2CC(NC(=O)C(=O)c3c(C)[nH]c4ccccc34)CC2=O)cc1 (stereo not drawn)
7. COc1ccc(N2CCN(C(=O)NC3CC(=O)N(c4ccc(OC)cc4)C3)CC2)cc1 (stereo not drawn)

[out]
[-52.6, -5.77, -18.5, 13.8, -4.03, -47.8, -35.9]

Your task in this section: give hERG current change (%, negative = inhibition) at 10uM for each listed record.
1. Cc1sc2nc(CN3CCCC3)nc(NCc3ccncc3)c2c1C
2. O=C(NC1CC(=O)N(c2ccc(Cl)cc2)C1)C1CC1 (stereo not drawn)

[out]
-69.1
-18.2

The measured values listed here are drawn from paper PMC4336329.
